Just for reference, patent US9670201B2 is where these values come from.

Target: RORC2 ligand binding domain (6-His-RORC2 LBD) (Homo sapiens (Human))
pIC50: −log10 of the molar value.
Below is a list of entries, each paired with its recorded pIC50 value.
MEASUREMENT TYPE: pIC50

SMILES REPRESENTATION | TESTED ON | RESULT NUMBER
Cn1cc(C2CCN(C(=O)CC3CCC3)CC2)c2c(C(F)(F)F)c(NC(=O)c3cccc(C#N)c3)cnc21 | RORC2 ligand binding domain (6-His-RORC2 LBD) (Homo sapiens (Human)) | 8.42
Cn1cc([C@@H]2CCN(C(=O)C3CCCC3)C(C)(C)C2)c2c(C(F)(F)F)c(NC(=O)c3cccc(C#N)c3)cnc21 | RORC2 ligand binding domain (6-His-RORC2 LBD) (Homo sapiens (Human)) | 8.24
Cn1cc(C2CCN(C(=O)C3CCCC3)CC2)c2c(C(F)(F)F)c(NC(=O)c3ccc(F)c(C#N)c3)cnc21 | RORC2 ligand binding domain (6-His-RORC2 LBD) (Homo sapiens (Human)) | 8.49

###

Biological target: RORC2 ligand binding domain (6-His-RORC2 LBD) (Homo sapiens (Human), UniProt P51449)
Sequence (P51449 269-508): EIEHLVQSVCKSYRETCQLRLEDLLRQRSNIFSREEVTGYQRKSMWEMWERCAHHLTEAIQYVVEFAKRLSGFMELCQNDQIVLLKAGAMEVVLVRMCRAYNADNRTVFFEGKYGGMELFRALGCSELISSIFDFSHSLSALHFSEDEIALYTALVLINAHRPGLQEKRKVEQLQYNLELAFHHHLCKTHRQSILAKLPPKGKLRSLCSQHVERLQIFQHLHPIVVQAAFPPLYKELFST
pIC50: −log10 of the molar value.
Returns rule met if the recorded pIC50 is greater than or equal to 8, and rule not met otherwise.

MOLECULE | ASSIGNED CLASS
Cn1cc(C2CCN(C(=O)[C@@H]3CCCS3)CC2)c2c(C(F)(F)F)c(NC(=O)c3cccc(C#N)c3)cnc21 (single isomer, unassigned) | rule met
Cc1c(NC(=O)c2cccc(C#N)c2)cnc2c1c([C@@H]1CCN(C(=O)C[C@@H](O)C(F)(F)F)C(C)(C)C1)cn2C | rule not met
Cc1c(NC(=O)c2cccc(C#N)c2)cnc2c1c([C@H]1C[C@H](C)N(C(=O)C3CCCC3)C[C@H]1C)cn2C (relative stereo) | rule not met
Cn1cc(C2[C@@H]3CC[C@H]2CN(C(=O)C2CCCC2)C3)c2c(C(F)(F)F)c(NC(=O)c3cccc(C#N)c3)cnc21 (stereo partly shown) | rule not met
COc1ccc(C(=O)Nc2cnc3c(c(C4[C@@H]5CC[C@H]4CN(C(=O)C4CCCC4)C5)cn3C)c2C)cc1C#N (stereo partly shown) | rule not met
CC(C)C(=O)N1CCC(c2cn(C)c3ncc(NC(=O)c4ccc(Cl)c(C#N)c4)c(C(F)(F)F)c23)CC1 | rule met
C[C@@H](C(=O)N1CCC(c2cn(C)c3ncc(NC(=O)c4cc(O)cc(C#N)c4)c(C(F)(F)F)c23)CC1)C(C)(C)C | rule met

###

Assay read-out IC50; system under study: RORC2 ligand binding domain (6-His-RORC2 LBD) (Homo sapiens (Human), UniProt P51449).
MEASUREMENT TYPE: IC50 (nM)

SMILES REPRESENTATION | TESTED ON | MEASUREMENT TYPE | RESULT NUMBER
COc1cc(Cl)cc(C(=O)Nc2cnc3c(c([C@@H]4CCN(C(=O)C(C)C)C(C)(C)C4)cn3C)c2C)c1 | RORC2 ligand binding domain (6-His-RORC2 LBD) (Homo sapiens (Human), UniProt P51449) | IC50 | 9.7
CC(C)C(=O)N1CCC(c2cn(C)c3ncc(NC(=O)c4ccc(F)c(Cl)c4)c(C(F)(F)F)c23)CC1 | RORC2 ligand binding domain (6-His-RORC2 LBD) (Homo sapiens (Human), UniProt P51449) | IC50 | 11.8
Cn1cc(C2CCN(C(=O)CC3CCCCC3)CC2)c2c(C(F)(F)F)c(NC(=O)c3cccc(C#N)c3)cnc21 | RORC2 ligand binding domain (6-His-RORC2 LBD) (Homo sapiens (Human), UniProt P51449) | IC50 | 5.2
Cn1cc(C2CCN(C(=O)C3CCCC3)CC2)c2c(C(F)(F)F)c(NC(=O)c3cc(O)cc(C#N)c3)cnc21 | RORC2 ligand binding domain (6-His-RORC2 LBD) (Homo sapiens (Human), UniProt P51449) | IC50 | 10.6
